# reported pIC50; entries follow
assay.target: human orexin-2 receptor (Homo sapiens (Human))
experimental.protocol: FLIPR Ca2+ flux assay, hOX2R
measurement.parameters: CHO cells expressing the receptor; agonist 70 pM Ala-6,12 human orexin-A
pIC50 field: float, defined as -log10 of concentration (mol/L).

Worked set:
CCN(CCn1ncc(C(C)(C)O)n1)C(=O)c1ccccc1OC(F)(F)F | 6.61
CCN(CCn1nc(C)c(C(C)(C)O)n1)C(=O)c1ccccc1C1CC1 | 7.89
CCN(CCn1nc(C)c(C(C)(C)O)n1)C(=O)c1ccccc1-n1nccn1 | 7.92
CCN(CCn1nc(C)c(C(C)(C)O)n1)C(=O)c1cccnc1-c1ccccc1 | 7.48

Briefly, pIC50 measured for CCN(CCn1nc(C)c(C(C)(C)O)n1)C(=O)c1ccccc1OC(F)F : 7.46

Note to self: pIC50 recorded for CCN(CCn1nc(C)c(C(C)(C)O)n1)C(=O)c1ccccc1C1CC1(F)F (stereo not drawn) was 8.00

// field: pIC50; key: CCN(CCn1nc(C)c(C(C)(C)O)n1)C(=O)c1ccccc1CC(F)(F)F ; value = 7.43

Kindly note the recorded pIC50 for CCN(CCn1nc(C)c(C(C)(C)O)n1)C(=O)c1cccnc1-n1cccn1 , which is 7.89

Please fill in: pIC50 reported for CCN(CCn1nc(C)c(C(C)(C)O)n1)C(=O)c1cccnc1CC(F)(F)F = 6.57

----------
assay.target: hOX1R (orexin-1 receptor) (Homo sapiens, UniProt O43613)
experimental.protocol: FLIPR Ca2+ flux assay, hOX1R
measurement.parameters: CHO cells expressing the receptor; agonist 70 pM Ala-6,12 human orexin-A
Quick reference for IC50 among some compounds

Entry CCN(CCn1nc(C)c(C(C)(C)O)n1)C(=O)c1cccnc1CC(F)(F)F — recorded IC50 = > 10 µM

# IC50 of CCN(CCn1nc(C)c(C(C)(C)O)n1)C(=O)c1ccccc1-n1ncnn1 = > 10 µM

// field: IC50; key: CCN(CCn1nc(C)c(C(C)(C)O)n1)C(=O)c1ncccc1-n1nccn1 ; value = > 10 µM

----------
assay.target: human orexin-2 receptor (Homo sapiens (Human), UniProt O43614)
Sequence (O43614 whole entry): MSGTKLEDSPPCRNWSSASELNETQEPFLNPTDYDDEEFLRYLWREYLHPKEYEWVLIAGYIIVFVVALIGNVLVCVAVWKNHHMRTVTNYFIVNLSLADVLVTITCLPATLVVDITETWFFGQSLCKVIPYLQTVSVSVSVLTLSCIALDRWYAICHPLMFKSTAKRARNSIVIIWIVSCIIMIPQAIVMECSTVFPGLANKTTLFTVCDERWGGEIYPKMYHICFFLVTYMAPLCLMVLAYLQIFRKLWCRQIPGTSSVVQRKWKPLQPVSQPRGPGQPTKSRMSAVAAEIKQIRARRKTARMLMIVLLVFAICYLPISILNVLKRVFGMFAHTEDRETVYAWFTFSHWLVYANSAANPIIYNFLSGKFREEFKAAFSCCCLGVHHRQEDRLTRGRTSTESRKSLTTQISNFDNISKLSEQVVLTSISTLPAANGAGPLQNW
experimental.protocol: FLIPR Ca2+ flux assay, hOX2R
Type: cell-based
measurement.parameters: CHO cells expressing the receptor; agonist 70 pM Ala-6,12 human orexin-A
experimental.endpoint: IC50
Show the value, then the unit it is measured in.

# count of solved cases: 2
CCN(CCn1ccc(C(C)(C)O)n1)C(=O)c1ccccc1-n1nccn1 [Example 50] | 23 nM
CCN(CCn1ncc(C(C)(C)O)n1)C(=O)c1ccccc1C1CC1 [Example 4] | 47 nM

According to the records, this compound CCN(CCn1nc(C)c(C(C)(C)O)n1)C(=O)c1ccccc1OCC(F)F [Example 35] displays IC50 of 35 nM

IC50 reading for CCN(CCn1nc(C)c(C(C)(C)O)n1)C(=O)c1nccnc1-n1cccn1 [Example 47] : 239 nM

Note to self: IC50 recorded for CCN(CCn1nc(C)c(C(C)(C)O)n1)C(=O)c1ccccc1OCC(F)(F)F [Example 33] was 52 nM

IC50 reported for this compound CCN(CCn1nc(C)c(C(C)(C)O)n1)C(=O)c1cccnc1OCC(F)(F)F [Example 21] : 21 nM

// IC50 value for CCN(CCn1nc(C)c(C(C)(C)O)n1)C(=O)c1cccnc1OC(C)C [Example 22] : 61 nM
